Cited source for all entries: patent US10745384B2

- TGT: human αVβ5 (Homo sapiens, UniProt P06756+P18084)
- Sequence (P06756 31-992 limits assumed): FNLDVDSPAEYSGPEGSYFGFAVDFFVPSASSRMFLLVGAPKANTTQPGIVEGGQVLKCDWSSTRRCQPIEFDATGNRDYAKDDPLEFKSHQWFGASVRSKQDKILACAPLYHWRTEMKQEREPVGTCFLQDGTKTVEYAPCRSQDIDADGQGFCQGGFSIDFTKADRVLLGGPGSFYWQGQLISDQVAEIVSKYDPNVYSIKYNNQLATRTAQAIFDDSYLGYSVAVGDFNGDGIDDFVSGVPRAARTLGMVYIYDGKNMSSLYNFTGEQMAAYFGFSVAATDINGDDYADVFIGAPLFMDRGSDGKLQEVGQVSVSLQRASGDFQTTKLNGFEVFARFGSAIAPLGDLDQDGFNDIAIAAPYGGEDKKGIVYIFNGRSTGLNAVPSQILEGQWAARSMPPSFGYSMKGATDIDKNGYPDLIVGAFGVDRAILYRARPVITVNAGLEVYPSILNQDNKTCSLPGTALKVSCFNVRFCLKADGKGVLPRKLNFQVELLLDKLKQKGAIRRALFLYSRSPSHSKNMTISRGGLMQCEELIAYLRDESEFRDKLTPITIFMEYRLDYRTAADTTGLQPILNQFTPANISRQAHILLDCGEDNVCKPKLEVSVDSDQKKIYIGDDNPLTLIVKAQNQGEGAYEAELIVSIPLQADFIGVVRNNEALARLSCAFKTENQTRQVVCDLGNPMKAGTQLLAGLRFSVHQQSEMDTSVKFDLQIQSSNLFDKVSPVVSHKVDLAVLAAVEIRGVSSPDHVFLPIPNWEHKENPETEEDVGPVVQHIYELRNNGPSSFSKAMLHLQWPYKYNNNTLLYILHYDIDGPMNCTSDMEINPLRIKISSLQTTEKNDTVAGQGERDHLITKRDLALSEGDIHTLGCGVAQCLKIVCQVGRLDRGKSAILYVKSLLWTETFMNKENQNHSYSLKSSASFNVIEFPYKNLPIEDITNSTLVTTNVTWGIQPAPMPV
- Sequence (P18084 24-719 limits assumed): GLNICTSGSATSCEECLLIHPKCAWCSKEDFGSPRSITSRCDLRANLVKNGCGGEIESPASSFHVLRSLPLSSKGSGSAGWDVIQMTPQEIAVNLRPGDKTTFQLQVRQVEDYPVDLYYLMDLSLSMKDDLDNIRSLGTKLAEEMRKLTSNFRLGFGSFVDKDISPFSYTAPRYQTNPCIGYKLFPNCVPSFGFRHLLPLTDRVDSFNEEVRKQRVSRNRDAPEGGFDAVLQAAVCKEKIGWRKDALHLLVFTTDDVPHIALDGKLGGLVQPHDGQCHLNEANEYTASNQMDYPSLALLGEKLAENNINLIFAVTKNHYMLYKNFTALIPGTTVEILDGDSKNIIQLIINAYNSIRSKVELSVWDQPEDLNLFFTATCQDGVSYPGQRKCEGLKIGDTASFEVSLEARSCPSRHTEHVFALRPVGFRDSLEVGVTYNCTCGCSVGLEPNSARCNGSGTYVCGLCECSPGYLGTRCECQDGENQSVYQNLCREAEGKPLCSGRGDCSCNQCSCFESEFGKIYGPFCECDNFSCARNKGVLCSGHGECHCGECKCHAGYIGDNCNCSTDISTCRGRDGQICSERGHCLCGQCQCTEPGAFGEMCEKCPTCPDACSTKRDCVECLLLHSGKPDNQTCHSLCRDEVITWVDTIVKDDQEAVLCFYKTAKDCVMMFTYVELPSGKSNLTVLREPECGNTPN
- ASSAY_METHOD_TEXT: human αVβ5 HTRF binding assay
pIC50: −log10 of the molar value. Counter-ions that a name gives are not always drawn.
pIC50 vs 9: at or above is satisfied, below is not satisfied.

COMPOUND: O=C(O)C[C@@H](c1cnc2ccccc2n1)n1ncc2cc(OCCc3ccc4c(n3)NCCC4)ccc21 [Example 17]
TGT: human αVβ5 (Homo sapiens, UniProt P06756+P18084)
CLASS: satisfied

COMPOUND: O=C(O)CC(c1cncc(-c2cnco2)c1)n1ncc2cc(OCCc3ccc4c(n3)NCCC4)ccc21 (centres unmarked) [Example 121]
TGT: human αVβ5 (Homo sapiens, UniProt P06756+P18084)
CLASS: satisfied

COMPOUND: Cn1cc2cc(C(CC(=O)O)n3ncc4cc(OCCc5ccc6c(n5)NCCC6)ccc43)cnc2n1 (centres unmarked) [Example 120, TFA]
TGT: human αVβ5 (Homo sapiens, UniProt P06756+P18084)
CLASS: satisfied

COMPOUND: O=C(O)C[C@@H](c1cnc2ccccc2c1)n1cc2ccc(CCC3CCc4cccnc4N3)cc2n1 (some centres unmarked) [Example 83]
TGT: human αVβ5 (Homo sapiens, UniProt P06756+P18084)
CLASS: not satisfied

COMPOUND: O=C(O)C[C@@H](c1cncc(CO)c1)n1ncc2cc(OCCc3ccc4c(n3)NCCC4)ccc21 [Example 100]
TGT: human αVβ5 (Homo sapiens, UniProt P06756+P18084)
CLASS: satisfied

COMPOUND: O=C(O)CC(c1cncc(C2OCCO2)c1)n1ncc2cc(OCCc3ccc4c(n3)NCCC4)ccc21 (centres unmarked) [Example 104]
TGT: human αVβ5 (Homo sapiens, UniProt P06756+P18084)
CLASS: satisfied

COMPOUND: COc1ccc([C@H](CC(=O)O)n2ncc3cc(OCCc4ccc5c(n4)NCCC5)ccc32)cn1 [Example 41]
TGT: human αVβ5 (Homo sapiens, UniProt P06756+P18084)
CLASS: satisfied

COMPOUND: O=C(O)CC(c1cnc2[nH]ncc2c1)n1ncc2cc(OCCc3ccc4c(n3)NCCC4)ccc21 (centres unmarked) [Example 106, TFA]
TGT: human αVβ5 (Homo sapiens, UniProt P06756+P18084)
CLASS: not satisfied

COMPOUND: O=C(O)C[C@@H](c1cnc2ccccc2c1)n1cc2ccc(CCCc3ccc4c(n3)NCCC4)cc2n1 [Example 87]
TGT: human αVβ5 (Homo sapiens, UniProt P06756+P18084)
CLASS: not satisfied

COMPOUND: CCOc1ncc(C(CC(=O)O)n2ncc3cc(OCCc4ccc5c(n4)NCCC5)ccc32)cn1 (centres unmarked) [Example 77, TFA]
TGT: human αVβ5 (Homo sapiens, UniProt P06756+P18084)
CLASS: satisfied

COMPOUND: COc1ccc(C(CC(=O)O)n2ncc3cc(OCCc4ccc5c(n4)NCCC5)ccc32)cn1 (centres unmarked) [Example 34, TFA]
TGT: human αVβ5 (Homo sapiens, UniProt P06756+P18084)
CLASS: satisfied

COMPOUND: O=C(O)CC(c1cnc2ccccc2n1)n1ncc2cc(OCCc3ccc4c(n3)NCCC4)ccc21 (racemic) [Example 15]
TGT: human αVβ5 (Homo sapiens, UniProt P06756+P18084)
CLASS: satisfied

COMPOUND: CCOc1ncc([C@H](CC(=O)O)n2ncc3cc(OCCc4ccc5c(n4)NCCC5)ccc32)cn1 [Example 107, TFA]
TGT: human αVβ5 (Homo sapiens, UniProt P06756+P18084)
CLASS: satisfied
